Value source: paper PMC12121626

System: H1975
Test: Antiproliferative activity, Cell Titer 96 Aqueous One cell proliferation assay, H1975
Type: cell-based, human
Conditions: H1975, 48 h of incubation
Description: Primary dermal neonatal fibroblasts (PCS-201-010) and lung adenocarcinoma cell lines (A549 and H1975) were acquired from ATCC (Manassas, VA, USA). […] All experiments were conducted at 37 °C, 5% (v/v) CO2, and 99% humidity in the dark. […] After 48 h of incubation, cell viability was measured using the Cell Titer 96® Aqueous One solution cell proliferation assay (Promega, Madison, WI, USA) according to the manufacturer's instructions and procedures described previously.[26,28] […]
Consider the following compounds and their measured IC50 readings.

| Compound | Operator Symbol | IC50, µM |
| --- | --- | --- |
| CN(Cc1cnc2nc(N)nc(N)c2n1)c1ccc(C(=O)N[C@@H](CCC(=O)[O-])C(=O)[O-])cc1.[Na+].[Na+] [[Na]2[MTX]] [reference compound] | > | 50 |
| CCCCCCCCCC[n+]1cccc(C)c1.CCCCCCCCCC[n+]1cccc(C)c1.CN(Cc1cnc2nc(N)nc(N)c2n1)c1ccc(C(=O)N[C@@H](CCC(=O)[O-])C(=O)[O-])cc1 [[C10-3-picoline]2[MTX]] | = | 29.1 |
| CCCCCCCCCCCCn1cc[n+](C)c1.CCCCCCCCCCCCn1cc[n+](C)c1.CN(Cc1cnc2nc(N)nc(N)c2n1)c1ccc(C(=O)N[C@@H](CCC(=O)[O-])C(=O)[O-])cc1 [[C12mim]2[MTX]] | = | 2.72 |
| CCCCCCCCCCn1cc[n+](C)c1.CCCCCCCCCCn1cc[n+](C)c1.CN(Cc1cnc2nc(N)nc(N)c2n1)c1ccc(C(=O)N[C@@H](CCC(=O)[O-])C(=O)[O-])cc1 [[C10mim]2[MTX]] | = | 14.9 |
| CCCCCCCCCC[n+]1cccc(C)c1.[Br-] [[C10-3-picoline][Br], reference compound] | = | 29.3 |
| CCCCCCCCCCn1cc[n+](C)c1.[Br-] [[C10mim][Br], reference compound] | = | 19.2 |
| CCCCCCCCCCCCn1cc[n+](C)c1.[Br-] [[C12mim][Br], reference compound] | = | 10.2 |
